As an illustration, consider measured IC50 for molecules on Fibroblast growth factor receptor 2 (Homo sapiens).
Sequence (P21802 whole entry): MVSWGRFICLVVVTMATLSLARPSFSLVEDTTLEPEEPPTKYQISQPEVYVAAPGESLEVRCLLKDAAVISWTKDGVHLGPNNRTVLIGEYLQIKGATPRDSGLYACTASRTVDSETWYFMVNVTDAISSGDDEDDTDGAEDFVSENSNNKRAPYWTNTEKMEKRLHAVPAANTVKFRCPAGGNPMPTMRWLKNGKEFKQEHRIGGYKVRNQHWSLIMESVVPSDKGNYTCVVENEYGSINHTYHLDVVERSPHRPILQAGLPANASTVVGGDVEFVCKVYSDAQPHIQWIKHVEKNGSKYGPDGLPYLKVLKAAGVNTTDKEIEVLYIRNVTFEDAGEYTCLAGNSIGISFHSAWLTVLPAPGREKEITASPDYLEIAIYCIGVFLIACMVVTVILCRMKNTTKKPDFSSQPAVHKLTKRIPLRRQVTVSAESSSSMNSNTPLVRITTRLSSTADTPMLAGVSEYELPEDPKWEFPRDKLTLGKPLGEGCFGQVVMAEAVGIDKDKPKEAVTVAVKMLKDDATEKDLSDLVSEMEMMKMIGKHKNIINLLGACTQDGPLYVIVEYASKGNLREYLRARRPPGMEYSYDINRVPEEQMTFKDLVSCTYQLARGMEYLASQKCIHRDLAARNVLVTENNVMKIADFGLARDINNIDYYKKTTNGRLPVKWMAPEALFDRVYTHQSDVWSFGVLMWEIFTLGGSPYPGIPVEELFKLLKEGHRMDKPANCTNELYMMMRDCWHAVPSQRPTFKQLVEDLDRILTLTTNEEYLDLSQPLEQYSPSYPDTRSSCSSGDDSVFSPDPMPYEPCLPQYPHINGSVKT

Q: // Input: CCCOc1cc(NC(=O)N2CCCc3ccc(C(=O)C(F)(F)F)nc32)ncc1C#N . Output its IC50 only.
Ans: > 10 µM

Q: Consider the molecule CCCCOc1cc(NC(=O)N2CCCc3ccc(C(=O)C(F)(F)F)nc32)ncc1C#N . State its measured IC50.
Ans: > 10 µM

----------
Dear all, this message contains IC50 results, target or system Fibroblast growth factor receptor 3 (Homo sapiens).

Q: For the compound CCOc1cc(NC(=O)N2CCCc3ccc(C(=O)C(F)(F)F)nc32)ncc1C#N , report IC50.
Ans: > 10 µM

Q: Give IC50 for N#Cc1cnc(NC(=O)N2CCCc3ccc(C(=O)C(F)(F)F)nc32)cc1OC1CCCCC1
Ans: > 10 µM

Where these numbers come from: ChEMBL document CHEMBL5055662
